Quick reference: normalized growth of the listed items.
experiment: chemical genetic growth profiling, strain panel (AID 1159580);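 note: tested at 20 µM; growth read once vehicle control cultures reached saturation at 30 °C; 1 = growth at the plate median or of vehicle wells; lower values mean less growth of the strain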
run-parameters: S. cerevisiae deletion strains, growth OD, locus YOR316C, strain cot1, hits give low values
Screen size: about 5,500 compounds; about 2,000 (36%) were called active. Roughly 18% stayed inconclusive and do not appear here. The list shows a part of the results.

- compound: "O=C1NC(O)=NC1(c1ccccc1)c1ccccc1"
  normalized growth: 1.02
- compound: "C=C(C)C1(O)OC(=O)C=C1OC (centres undefined)"
  normalized growth: 0.994
- compound: "CCCSc1ccc2nc(NC(=O)OC)[nH]c2c1"
  normalized growth: 0.959
- compound: "CCOC(=O)NNc1nncc2ccccc12"
  normalized growth: 0.976
- compound: "CN(C)C(=O)Oc1cccc([N+](C)(C)C)c1"
  normalized growth: 0.994
- compound: "CCN1CCN(C(=O)NC(C(=O)N[C@@H]2C(=O)N3[C@@H]2SC(C)(C)[C@@H]3C(=O)O)c2ccccc2)C(=O)C1=O (some centres undefined)"
  normalized growth: 1.01
- compound: "CC(C)CCCC(C)C1CCC2C3CC(=O)[C@H]4C[C@@H](O)CC[C@]4(C)C3CC[C@]12C (some centres undefined)"
  normalized growth: 1
- compound: "CC(C)CC(NC(=O)OCC1c2ccccc2-c2ccccc21)C(=O)O (centres undefined)"
  normalized growth: 1.01
- compound: "CC(C)CC1NC(=O)CNC1=O (centres undefined)"
  normalized growth: 0.976
- compound: "N[C@@H](CCC(=O)N[C@@H](CS)C(=O)NCC(=O)O)C(=O)O"
  normalized growth: 0.998
- compound: "CC(C)CCCC(C)C1CCC2C3C[C@@H](O)[C@@]4(O)C[C@@H](O)CC[C@]4(C)C3CC[C@]12C (some centres undefined)"
  normalized growth: 1.02
- compound: "CO[C@H]1CC(O[C@@H]2/C(C)=C/C[C@@H]3C[C@@H](C[C@]4(CC[C@H](C)[C@@H](C5CCCCC5)O4)O3)OC(=O)[C@@H]3C=C(C)/C(=N\\O)[C@H]4OC/C(=C\\C=C\\[C@@H]2C)[C@]43O)O[C@@H](C)C1O (some centres undefined)"
  normalized growth: 0.99
- compound: "NS(=O)(=O)c1cc2c(cc1Cl)NC(CSCc1ccccc1)=NS2(=O)=O"
  normalized growth: 0.973
- compound: "CC(=O)O[C@H]1CC[C@@]2(C)C(=CC(=O)C3C4CCC(C(C)CCCC(C)C)[C@@]4(C)CCC32)C1 (some centres undefined)"
  normalized growth: 0.977
- compound: "CC(C)CCCC(C)[C@H]1CCC2C3C(=O)C=C4C[C@@H](O)CC[C@]4(C)C3CC[C@@]21C (some centres undefined)"
  normalized growth: 1.04
- compound: "CC(C)CCCC(C)C1CCC2C3=CC[C@H]4C[C@@H](O)CC[C@]4(C)C3CC[C@@]21C (some centres undefined)"
  normalized growth: 0.988
- compound: "CCCc1cc(=O)[nH]c(=S)[nH]1"
  normalized growth: 0.993
- compound: "CN[C@@H]1[C@H](O)[C@H](NC)[C@H]2O[C@@]3(O)C(=O)C[C@@H](C)O[C@H]3O[C@@H]2[C@H]1O"
  normalized growth: 1.01
- compound: "CC(C)CCCC(C)[C@H]1CCC2C3CC[C@@H]4C[C@H](O)CC[C@]4(C)C3CC[C@@]21C (some centres undefined)"
  normalized growth: 1

---

experiment: chemical genetic growth profiling, strain panel (AID 1159580);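 note: tested at 20 µM; growth read once vehicle control cultures reached saturation at 30 °C; 1 = growth at the plate median or of vehicle wells; lower values mean less growth of the strain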
run-parameters: S. cerevisiae deletion strains, growth OD, locus YNR049C, strain mso1, hits give low values
In all, about 5,500 compounds went through this assay and about 2,000 (36%) were called active. Not shown: some 18% with an inconclusive outcome. The list shows a part of the results.
Quick reference: normalized growth of the listed items.

- molecule: "C=C1c2c(Cl)ccc(O)c2C(O)=C2C(=O)[C@]3(O)C(O)=C(C(N)=O)C(=O)[C@@H](N(C)C)[C@@H]3[C@@H](O)[C@H]12"
  normalized growth: 0.971
- molecule: "CC1(C)CC2C1CC[C@]1(C)CCC3C(C(=O)O)CC(=O)O[C@@]32C1 (stereo partly specified)"
  normalized growth: 1.05
- molecule: "CCN1CCN(C(=O)NC(C(=O)N[C@@H]2C(=O)N3[C@@H]2SC(C)(C)[C@@H]3C(=O)O)c2ccccc2)C(=O)C1=O (stereo partly specified)"
  normalized growth: 0.993
- molecule: "C=C1c2cccc(O)c2C(O)=C2C(=O)[C@]3(O)C(O)=C(C(N)=O)C(=O)[C@@H](N(C)C)[C@@H]3[C@@H](O)[C@H]12"
  normalized growth: 1.04
- molecule: "CN(C)[C@@H]1C(=O)C(C(N)=O)=C(O)[C@@]2(O)C(=O)C3=C(O)c4c(O)ccc(Cl)c4[C@@H](O)[C@H]3C[C@@H]12"
  normalized growth: 0.978
- molecule: "CC1=CC(=O)c2ccccc2C1=O"
  normalized growth: 1.02
- molecule: "C/C1=C/CC(C)(C)/C=C/C/C(C)=C/CC1"
  normalized growth: 0.976
- molecule: "O=C(OOC(=O)c1ccccc1)c1ccccc1"
  normalized growth: 0.959
- molecule: "O=P1(NCCCl)OCCCN1CCCl (stereo unspecified)"
  normalized growth: 0.985
- molecule: "O=C(O)C1=CCCNC1"
  normalized growth: 0.976
- molecule: "C[C@H]1c2cccc(O)c2C(O)=C2C(=O)[C@]3(O)C(O)=C(C(N)=O)C(=O)[C@@H](N(C)C)[C@@H]3[C@@H](O)[C@@H]21"
  normalized growth: 0.984
- molecule: "NC(=O)NC(=O)Cc1ccccc1"
  normalized growth: 0.962
- molecule: "CNCCCC12CCC(c3ccccc31)c1ccccc12"
  normalized growth: 0.971
- molecule: "O=C(OCc1ccccc1)c1ccccc1"
  normalized growth: 0.954
- molecule: "CC(=O)O[C@H]1CC[C@@]2(C)C(=CC(=O)C3C4CCC(C(C)CCCC(C)C)[C@@]4(C)CCC32)C1 (stereo partly specified)"
  normalized growth: 0.993
- molecule: "CC12CCC3C(CC3(C)C)C(C)(CCC1=O)O2 (stereo unspecified)"
  normalized growth: 0.999
- molecule: "NCC(N)C(=O)c1ccccc1 (stereo unspecified)"
  normalized growth: 1.03
- molecule: "NCC(=O)c1ccccc1"
  normalized growth: 1.02
- molecule: "CC1(C)CC2C1CC[C@]1(CBr)CCC3C(CC(=O)O)C(=O)O[C@@]32C1 (stereo partly specified)"
  normalized growth: 1.02
- molecule: "C/C=C\\C1=C(C(=O)O)N2C(=O)C(NC(=O)C(N)c3ccc(O)cc3)C2SC1 (stereo unspecified)"
  normalized growth: 1.03
- molecule: "CN[C@@H]1[C@H](O)[C@H](NC)[C@H]2O[C@@]3(O)C(=O)C[C@@H](C)O[C@H]3O[C@@H]2[C@H]1O"
  normalized growth: 1.01

---

experiment: chemical genetic growth profiling, strain panel (AID 1159580);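 note: tested at 20 µM; growth read once vehicle control cultures reached saturation at 30 °C; 1 = growth at the plate median or of vehicle wells; lower values mean less growth of the strain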
run-parameters: S. cerevisiae deletion strains, growth OD, locus YCR088W, strain abp1, hits give low values
About 2,000 (36%) of roughly 5,500 compounds were called active. Inconclusive results (about 18%) are left out. Some of the results follow.
Quick reference: normalized growth of the listed items.

- compound: "N[C@@H](CCC(=O)N[C@@H](CS)C(=O)NCC(=O)O)C(=O)O"
  normalized growth: 0.998
- compound: "CCN1CCN(C(=O)NC(C(=O)N[C@@H]2C(=O)N3[C@@H]2SC(C)(C)[C@@H]3C(=O)O)c2ccccc2)C(=O)C1=O (some centres undefined)"
  normalized growth: 1
- compound: "CC1(C)CC2C1CC[C@]1(C)CCC3C(C(=O)O)CC(=O)O[C@@]32C1 (some centres undefined)"
  normalized growth: 1.03
- compound: "CC(=O)O[C@@H]1C=C[C@@]2(C)C(C[C@@H](OC(C)=O)[C@@]3(C)C4=CC(=O)O[C@@H](c5ccoc5)[C@]4(C)CCC23)C1(C)C (some centres undefined)"
  normalized growth: 1.01
- compound: "CN(C)C(=O)Oc1cccc([N+](C)(C)C)c1"
  normalized growth: 0.99
- compound: "CC(=O)O[C@@H]1CC2C(C)(C)[C@H](O)C=C[C@]2(C)C2CC[C@]3(C)C(=CC(=O)O[C@H]3c3ccoc3)[C@@]21C (some centres undefined)"
  normalized growth: 0.983
- compound: "CC1(C)CC2C1CC[C@]1(CBr)CCC3C(CC(=O)O)C(=O)O[C@@]32C1 (some centres undefined)"
  normalized growth: 1.01
- compound: "Cc1nc(N)cc(C[n+]2csc(CCO)c2C)n1"
  normalized growth: 0.98
- compound: "CNCCCC12CCC(c3ccccc31)c1ccccc12"
  normalized growth: 0.998

---

experiment: chemical genetic growth profiling, strain panel (AID 1159580);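 note: tested at 20 µM; growth read once vehicle control cultures reached saturation at 30 °C; 1 = growth at the plate median or of vehicle wells; lower values mean less growth of the strain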
run-parameters: S. cerevisiae deletion strains, growth OD, locus YNL161W, strain CBK1
Hit rate of the full screen: of about 5,500 compounds, about 2,000 (36%) were called active. Roughly 18% stayed inconclusive and do not appear here. No stated cut-off is given here; in the data, active means normalized growth mostly below about 0.91 (no sharp cut-off); inconclusive means no clear call, values can overlap the other calls; inactive means mostly above about 0.92. Some of the results follow.
Possible outcomes: active, inactive

- compound: "COC(=O)C1=C(Nc2ccccc2NS(=O)(=O)c2ccc(C(F)(F)F)cc2Cl)CSC1"
  class-label: "inactive"
- compound: "CC(C)(C)c1cc(C(=O)NNc2cccc(Cl)c2)n(Cc2ccccc2)n1"
  class-label: "inactive"
- compound: "Cc1ccc(-n2cccc2)c(NS(=O)(=O)c2ccc(-c3ccno3)s2)c1"
  class-label: "inactive"
- compound: "N#CSCC(=O)c1ccccc1"
  class-label: "active"
- compound: "N/C(Cc1cccc2ccccc12)=N/OC(=O)c1ccc(Cl)cc1"
  class-label: "inactive"
- compound: "C#CCSC1=NNC(c2ccccn2)S1 (stereo unspecified)"
  class-label: "active"
- compound: "O=S(=O)(Nc1ccccc1Oc1ccccc1)c1ccc(-c2ccno2)s1"
  class-label: "inactive"
- compound: "Cc1ccc(-c2csc(-c3ccncc3)n2)cc1"
  class-label: "inactive"
- compound: "Cc1onc(-c2c(F)cccc2Cl)c1/C(N)=N\\OC(=O)c1ccc(C(C)(C)C)cc1"
  class-label: "inactive"
- compound: "Brc1ccc(-c2csc(-c3ccncc3)n2)cc1"
  class-label: "inactive"
- compound: "CC(C)(C)c1cc(C(=O)Nc2ccc3c(c2)OCO3)n(Cc2ccc(F)cc2)n1"
  class-label: "inactive"

Data provenance: PubChem BioAssay AID1159580
